Just for reference, ChEMBL document CHEMBL1127756 is where these values come from.

target: Gastrin/cholecystokinin type B receptor (Mus musculus)
Sequence (P56481 whole entry): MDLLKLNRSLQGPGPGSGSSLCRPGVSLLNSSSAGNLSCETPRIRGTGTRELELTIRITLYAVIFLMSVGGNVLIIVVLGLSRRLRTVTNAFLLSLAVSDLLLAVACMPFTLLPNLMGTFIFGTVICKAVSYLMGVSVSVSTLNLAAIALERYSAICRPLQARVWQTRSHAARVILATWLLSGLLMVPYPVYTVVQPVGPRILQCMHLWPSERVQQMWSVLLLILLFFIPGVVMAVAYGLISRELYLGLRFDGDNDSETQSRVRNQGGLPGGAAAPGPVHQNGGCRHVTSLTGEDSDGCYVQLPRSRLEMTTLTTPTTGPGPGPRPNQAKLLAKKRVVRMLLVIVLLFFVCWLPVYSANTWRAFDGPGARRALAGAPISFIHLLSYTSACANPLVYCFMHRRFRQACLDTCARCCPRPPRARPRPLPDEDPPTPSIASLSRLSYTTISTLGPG
Square brackets hold non-standard residues; d marks the D form. Peptide text beside a SMILES is read from it. Ahp(2) = CCCCC[C@H](N)C(=O)O
Readout Label: IC50 (nM)
Quick note: give the figure in nM, leave out the unit.

According to the records, this molecule CCCCC[C@H](NC(=O)[C@@H](N)Cc1c[nH]c2ccccc12)C(=O)N[C@@H](CC(=O)O)C(=O)N[C@@H](Cc1ccccc1)C(N)=O (H-W[Ahp(2)]DF-NH2) displays IC50 of 2.83

----------
molecular target: Substance-P receptor (Cavia porcellus); test: Concentration producing half-maximal inhibition of specific binding of. [125I]Bolton-Hunter Substance P to NK-1 receptors in the guinea pig cerebral cortex; assay type: tissue-based
Sequence (P30547 whole entry): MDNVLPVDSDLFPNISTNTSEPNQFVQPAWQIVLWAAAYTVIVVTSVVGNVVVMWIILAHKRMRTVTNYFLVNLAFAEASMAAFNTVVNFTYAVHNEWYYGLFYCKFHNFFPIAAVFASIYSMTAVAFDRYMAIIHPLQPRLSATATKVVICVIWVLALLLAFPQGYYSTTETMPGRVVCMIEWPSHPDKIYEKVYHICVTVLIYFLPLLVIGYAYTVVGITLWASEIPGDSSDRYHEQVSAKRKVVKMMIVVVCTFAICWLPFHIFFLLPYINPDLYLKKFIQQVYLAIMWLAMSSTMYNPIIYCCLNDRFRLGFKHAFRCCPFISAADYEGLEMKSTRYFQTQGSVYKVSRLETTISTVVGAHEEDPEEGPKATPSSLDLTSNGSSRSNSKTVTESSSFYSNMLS
Readout Label: IC50 (nM)
Give just the number in nM; leave the unit off.

Field IC50 (entry "Ac-QQFFGLM-NH2" ) reads 29.5

"H-QQFFGLM-NH2" has a reported IC50 of 49.6
